Experiment: Ring stability to hydrolysis, UV absorption changes with time
Assay type: physicochemical
Conditions: 165 hr; equal volumes methanol-aqueous phosphate buffer (pH 8); read-out: % Compound Remaining after 165 hr
readout type: remaining at 165 h (%)

The examples below pair each entry with its known result.
compound	unit descriptor	remaining at 165 h
Cc1nsn(Cc2ccc(Cl)cc2)c1=O [drawing 23]	%	93
CCCCCCn1snc(C)c1=O [CH3, n-C6 H13]	%	100

(1) O=c1cnsn1Cc1ccccc1
(2) CCCc1nsn(Cc2ccccc2)c1=O
Problem: Out of 1 and 2 , name the one with the higher remaining at 165 h. Record your answer as the label of the chosen record.
Result: 2

* * *

Assay: Ring stability to hydrolysis, UV absorption changes with time
Format: physicochemical
Details: 48 hr; equal volumes methanol-aqueous phosphate buffer (pH 8); read-out: % Compound Remaining after 48 hr
readout type: remaining at 48 h (%)

compound	test result
O=c1c(Cl)nsn1Cc1ccccc1 [reference compound]	0

(a) CCCCCCn1snc(C)c1=O
(b) O=c1c(Cl)nsn1Cc1ccc(Cl)cc1 [reference compound]
Problem: Out of a and b , name the one with the higher remaining at 48 h. Record your answer as the label of the chosen record.
Result: a

* * *

Assay: Ring stability to hydrolysis, UV absorption changes with time
Assay type: physicochemical
Conditions: 336 hr; equal volumes methanol-aqueous phosphate buffer (pH 8); read-out: % Compound Remaining after 336 hr
readout type: remaining at 336 h (%)

(a) CCCc1nsn(Cc2ccccc2)c1=O
(b) O=c1cnsn1Cc1ccccc1
Problem: Out of a and b , name the one with the higher remaining at 336 h. Record your answer as the label of the chosen record.
Result: a

* * *

Assay: Ring stability to hydrolysis, UV absorption changes with time
Type: physicochemical
Settings: 1 hr; equal volumes methanol-aqueous phosphate buffer (pH 8); read-out: % Compound Remaining after 1 hr
readout type: remaining at 1 h (%)

compound	test result
O=c1cnsn1Cc1ccccc1	100
Cc1nsn(Cc2ccc(Cl)cc2)c1=O [drawing 23]	100
CCCc1nsn(Cc2ccccc2)c1=O	100

(A) CCCCCCn1snc(C)c1=O [CH3, n-C6 H13]
(B) O=c1c(Cl)nsn1Cc1ccccc1 [reference compound]
Problem: Out of A and B , name the one with the higher remaining at 1 h. Record your answer as the label of the chosen record.
Result: A
(A: 100%, B: 48%)

* * *

Assay: Ring stability to hydrolysis, UV absorption changes with time
Type: physicochemical
Conditions: 48 hr; equal volumes methanol-aqueous phosphate buffer (pH 8); read-out: % Compound Remaining after 48 hr
readout type: remaining at 48 h (%)

compound	remaining at 48 h, %
O=c1cnsn1Cc1ccccc1	80
CCCc1nsn(Cc2ccccc2)c1=O	100
Cc1nsn(Cc2ccc(Cl)cc2)c1=O [drawing 23]	97
